The reported measurements were obtained from paper PMC5540273.

Reported %Inh values for a set of compounds
Tested on: ULK2
Settings: concentration: 1 μM,replicates: in singlicate; n = 1;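 note: KINOMEscan kinase panel screen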
Please respond with the number in % and leave the unit unwritten.

Example entries begin here.
1. OCCn1cc(-c2cnc3nnn(Cc4ccc5ncccc5c4)c3n2)cn1 | 0
2. CC(=O)c1c(-c2ccncc2)[nH]c(-c2ccncc2)c1C [GW493036] | 0
3. Cc1ccc2c(-c3ccnc(Nc4ccc(C(F)(F)F)cc4)n3)cnn2n1 [GW819776] | 0
4. C[C@@H](Oc1cc(-n2cnc3cc(-c4ccncc4)ccc32)sc1C(N)=O)c1ccccc1Cl [GSK479719] | 3

# input for lookup
stdin: Please state recorded %Inh (tested on ULK2) of Cc1ccc(Nc2ccnc(Nc3ccc4c(c3)CS(=O)(=O)C4)n2)cc1O.Cl [GW579362]
stdout: 2

====

Test system: MST4
Conditions: concentration: 1 μM,replicates: in singlicate; n = 1
Given measured %Inh, output YES if it is greater than or equal to 5% and NO if not.

1) CS(=O)(=O)Nc1ccc(-c2ccnc3[nH]ccc23)cc1 [GSK993273] | YES

stdin: Assess whether reported %Inh for "C[C@@H]1CNc2c(sc3ccc4nc(-c5ccc(O)cc5)ccc4c23)C(=O)N1" sits at 5% or higher.
stdout: NO

stdin: Assess whether reported %Inh for CCCC(=O)Nc1n[nH]c2ncccc12 [SB-601436] sits at 5% or higher.
stdout: NO

stdin: Assess whether reported %Inh for COC(=O)c1cccc(NC(=O)NC2CCN(c3ccnc(Nc4cc(OC)c(OC)c(OC)c4)n3)C2)c1 (stereo not drawn) [GSK1379767] sits at 5% or higher.
stdout: NO

====

Tested on: NEK6
Conditions: concentration: 1 μM,replicates: in singlicate; n = 1
Reported %Inh values for a set of compounds
Please respond with the number in % and leave the unit unwritten.

Example entries begin here.
1. CN(c1cccc(CNc2nc(Nc3ccc4c(c3)CC(=O)N4)ncc2C(F)(F)F)c1)S(C)(=O)=O | 23
2. CSc1nccc(-c2c(-c3ccc(F)cc3)ncn2CCCN2CCOCC2)n1.Cl | 0

stdin: Sample COc1cc(Nc2nccc(N3CCC(NC(=O)c4cccc(C#N)c4)C3)n2)cc(OC)c1OC (centres unmarked) — what was its %Inh?
stdout: 33

stdin: Sample CS(=O)c1ccc(-c2coc3ccc(-c4n[nH]c(=O)o4)cc23)cc1 (centres unmarked) — what was its %Inh?
stdout: 0

stdin: Sample "Cn1cc(-c2cccc3c(N)c(C(N)=O)nnc23)cn1" — what was its %Inh?
stdout: 5

stdin: Sample "Cl.Cl.NC[C@H](CC1CCCCC1)NC(=O)c1ccc(-c2ccnc3[nH]ccc23)s1" — what was its %Inh?
stdout: 0

stdin: Sample "CN(c1ccc2c(c1)nc(NCc1ccc(F)cc1)n2C)c1ccnc(Nc2ccc(CS(C)(=O)=O)cc2)n1.Cl" — what was its %Inh?
stdout: 0

stdin: Sample "O=C(Nc1ccccc1)c1cccc(Oc2ccc3nccn3n2)c1" — what was its %Inh?
stdout: 0

stdin: Sample "CCn1c(-c2nonc2N)nc2cncc(CNC3CCNCC3)c21.Cl" — what was its %Inh?
stdout: 0

====

Tested on: EPHB3
Details: concentration: 1 μM,replicates: in singlicate; n = 1
parameter: %Inh (%)
Please respond with the number in % and leave the unit unwritten.

Example entries begin here.
1. COc1cc2c(Nc3ccc(NC(=O)c4ccccc4)cc3)ncnc2cc1OCCCN1CCOCC1 [GSK301329] | 5
2. Cn1ccc2ncnc(Oc3ccc(NC(=O)Nc4cnn(C(C)(C)C)c4)c(Cl)c3)c21 | 29
3. Cn1ccc2ncnc(Oc3ccc(NC(=O)Nc4cc(C(C)(C)C)on4)c(Cl)c3)c21 | 40

stdin: Sample CSc1nccc(-c2c(-c3ccc(F)cc3)ncn2CCCN2CCOCC2)n1.Cl [SB-217146] — what was its %Inh?
stdout: 0

====

Tested on: CSNK1G2
Conditions: concentration: 1 μM,replicates: in singlicate; n = 1
Given measured %Inh, output satisfied if it is greater than or equal to 3% and not satisfied if not.

1) N#Cc1cccc(C(=O)NC2CCN(c3ccnc(Nc4ccc(F)cc4)n3)C2)c1 (stereo not drawn) [GSK1379708] | satisfied
2) CN1CCN(CCCNc2nccc(-c3c(-c4ccc(F)cc4)nn4cc(C(N)=O)ccc34)n2)CC1 [GW622475] | not satisfied
3) COC(=O)c1cccc(NC(=O)NC2CCN(c3ccnc(Nc4cc(OC)c(OC)c(OC)c4)n3)C2)c1 (stereo not drawn) [GSK1379767] | not satisfied
4) CS(=O)(=O)Nc1ccc(-c2ccnc3[nH]ccc23)cc1 [GSK993273] | not satisfied
5) CCOC(=O)N1CCC(n2cnc(-c3ccc(F)cc3)c2-c2ccnc(N)n2)CC1 [SB-219952] | satisfied

stdin: Assess whether reported %Inh for "NC(=O)c1ccc(-c2cc3ncnc(SCC(=O)O)c3s2)cc1" sits at 3% or higher.
stdout: satisfied

stdin: Assess whether reported %Inh for Cl.Cl.NC[C@H](CC1CCCCC1)NC(=O)c1ccc(-c2ccnc3[nH]ccc23)s1 [GSK1581428] sits at 3% or higher.
stdout: satisfied

stdin: Assess whether reported %Inh for "O=C(Nc1ccccc1)c1cccc(Oc2ccc3nccn3n2)c1" sits at 3% or higher.
stdout: satisfied

stdin: Assess whether reported %Inh for CN(c1ccc2c(c1)nc(NCc1ccc(F)cc1)n2C)c1ccnc(Nc2ccc(CS(C)(=O)=O)cc2)n1.Cl [GW813244] sits at 3% or higher.
stdout: satisfied

stdin: Assess whether reported %Inh for "CN(c1cccc(CNc2nc(Nc3ccc4c(c3)CC(=O)N4)ncc2C(F)(F)F)c1)S(C)(=O)=O" sits at 3% or higher.
stdout: satisfied

stdin: Assess whether reported %Inh for C[C@@H](Oc1cc(-n2cnc3ccc(-c4ccncc4)cc32)sc1C(N)=O)c1ccccc1Cl [GSK483724] sits at 3% or higher.
stdout: satisfied

stdin: Assess whether reported %Inh for O=C(NCC1CC1)c1ccc(-c2cc(C(=O)NC3CC3)ccc2F)cc1 [GW810445] sits at 3% or higher.
stdout: not satisfied

stdin: Assess whether reported %Inh for "C[C@@H]1CNc2c(sc3ccc4nc(-c5ccc(O)cc5)ccc4c23)C(=O)N1" sits at 3% or higher.
stdout: satisfied

stdin: Assess whether reported %Inh for COc1cc2c(Nc3ccc(NC(=O)c4ccccc4)cc3)ncnc2cc1OCCCN1CCOCC1 [GSK301329] sits at 3% or higher.
stdout: not satisfied

====

Test system: FAK
Construct: gene PTK2
Conditions: concentration: 1 μM,replicates: in singlicate; n = 1
parameter: %Inh (%)
Please respond with the number in % and leave the unit unwritten.

Example entries begin here.
1) Cl.Cl.NC[C@H](CC1CCCCC1)NC(=O)c1ccc(-c2ccnc3[nH]ccc23)s1 | 48
2) COc1cc2ncn(-c3cc(OCC4CCCCC4)c(C(N)=O)s3)c2cc1OC | 0

stdin: Sample "CCn1c(-c2nonc2N)nc2cncc(Br)c21" — what was its %Inh?
stdout: 9

stdin: Sample "O=C(NCC1CC1)c1ccc(-c2cc(C(=O)NC3CC3)ccc2F)cc1" — what was its %Inh?
stdout: 3

stdin: Sample "CSc1nccc(-c2c(-c3ccc(F)cc3)ncn2CCCN2CCOCC2)n1.Cl" — what was its %Inh?
stdout: 0

stdin: Sample "Cn1ccc2ncnc(Oc3ccc(NC(=O)Nc4ccnc(C(F)(F)F)c4)c(Cl)c3)c21" — what was its %Inh?
stdout: 0

stdin: Sample "CCCC(=O)Nc1n[nH]c2ncccc12" — what was its %Inh?
stdout: 0

====

System: MET
Settings: concentration: 1 μM,replicates: in singlicate; n = 1
parameter: %Inh (%)
Please respond with the number in % and leave the unit unwritten.

1. C[C@@H](Oc1cc(-n2cnc3ccc(-c4ccncc4)cc32)sc1C(N)=O)c1ccccc1Cl | 9

# input for lookup
stdin: Sample "Cc1cccc(-c2nc(Nc3ccncc3)c3sccc3n2)n1" — what was its %Inh?
stdout: 28

====

Test system: CAMK2D
Conditions: concentration: 1 μM,replicates: in singlicate; n = 1
Reported %Inh values for a set of compounds
Please respond with the number in % and leave the unit unwritten.

Example entries begin here.
1. NC(=O)Nc1sc(-c2ccc(F)cc2)cc1C(N)=O | 2
2. COc1cc2c(Nc3ccc(NC(=O)c4ccccc4)cc3)ncnc2cc1OCCCN1CCOCC1 | 0
3. Nc1nccc(-c2ccc3c(N)n[nH]c3c2)n1 | 0

stdin: Sample "O=C(Nc1ccc(Oc2ccc3nc(NC(=O)C4CC4)cn3n2)c(F)c1)c1cccn(-c2ccccc2)c1=O" — what was its %Inh?
stdout: 3

stdin: Sample "Cl.c1ccc(Oc2ccc(Nc3ccnc4cc(-c5ccc(CN6CCNCC6)o5)ccc34)cc2)nc1" — what was its %Inh?
stdout: 3

====

Reported %Inh values for a set of compounds
Test system: S6K1
Settings: concentration: 1 μM,replicates: in singlicate; n = 1
Please respond with the number in % and leave the unit unwritten.

Example entries begin here.
1) CN(c1cccc(CNc2nc(Nc3ccc4c(c3)CC(=O)N4)ncc2C(F)(F)F)c1)S(C)(=O)=O | 42
2) CS(=O)(=O)Nc1ccc(-c2ccnc3[nH]ccc23)cc1 [GSK993273] | 37

stdin: Sample Cc1ccc2c(-c3ccnc(Nc4ccc(C(F)(F)F)cc4)n3)cnn2n1 [GW819776] — what was its %Inh?
stdout: 29

stdin: Sample C[C@@H](Oc1cc(-n2cnc3cc(-c4ccncc4)ccc32)sc1C(N)=O)c1ccccc1Cl [GSK479719] — what was its %Inh?
stdout: 11

stdin: Sample "Cn1ccc2ncnc(Oc3ccc(NC(=O)Nc4cccc(C(F)(F)F)c4)c(Cl)c3)c21" — what was its %Inh?
stdout: 2

stdin: Sample Cc1nnc(-c2ccc3occ(-c4ccc(S(C)=O)cc4)c3n2)o1 (centres unmarked) — what was its %Inh?
stdout: 0

stdin: Sample "O=C(Nc1ccc(Oc2ccc3nc(NC(=O)C4CC4)cn3n2)c(F)c1)c1cccn(-c2ccccc2)c1=O" — what was its %Inh?
stdout: 0

stdin: Sample Cl.Cl.NC[C@H](CC1CCCCC1)NC(=O)c1ccc(-c2ccnc3[nH]ccc23)s1 [GSK1581428] — what was its %Inh?
stdout: 93
